experiment: ATG_M_32_XSP2: Attagene TRANS-FACTORIAL Multi-Species (XSP2) HepG2 Assay for M19 Transcription Factor (Internal Marker) (AID 2283826)
Records with an inconclusive call do not appear. Calls of active or inactive are those of the source. The calls were made as follows: active = hit-call score of the fitted dose curve at least 0.9, where 1 is the maximum; inconclusive = response in the unintended direction; inactive = score below 0.9.
OUTCOME MEASURE: outcome

compound=COc1ccc(C(c2ccc(OC)cc2)C(Cl)(Cl)Cl)cc1 recorded_value=inactive
compound=CCCCNC(=O)OCC#CI recorded_value=inactive
compound="CCCC1COC(Cn2cncn2)(c2ccc(Cl)cc2Cl)O1 (stereo not given)" recorded_value=inactive
compound="C#CCOS(=O)OC1CCCCC1Oc1ccc(C(C)(C)C)cc1 (stereo not given)" recorded_value=inactive
compound=COC(=O)N(OC)c1ccccc1COc1ccn(-c2ccc(Cl)cc2)n1 recorded_value=inactive

---

read-out: sulfotransferase 2A1 (SULT2A1), SULT2A1 (gene 6822); test: LTEA_HepaRG_SULT2A1: Life Technologies and Expression Analysis (LTEA) Assay for sulfotransferase 2A1 (SULT2A1) using HepaRG (AID 2283531); conditions: mRNA level, 48 h; actives raise or lower the signal
The source made the active and inactive calls. How the source made its calls: active means hit-call score of the fitted dose curve at least 0.9, where 1 is the maximum; inactive means score below 0.9.
Outcomes: active, inactive

molecule=CNC(=O)ON=CC(C)(C)SC group_label=inactive
molecule=CNC(=S)S group_label=inactive
molecule="N#CC(CCc1ccc(Cl)cc1)(Cn1cncn1)c1ccccc1 (stereo not drawn)" group_label=active
molecule=COP(=S)(OC)Oc1nc(Cl)c(Cl)cc1Cl group_label=inactive
molecule="CCCCC(CC)COC(=O)c1ccccc1C(=O)OCC(CC)CCCC (stereo not drawn)" group_label=inactive
molecule=Cc1ccc(-c2c(Cl)nc(C#N)n2S(=O)(=O)N(C)C)cc1 group_label=active
molecule=CCOc1cc(Oc2ccc(C(F)(F)F)cc2Cl)ccc1[N+](=O)[O-] group_label=active
molecule=O=C(O)c1nc(Cl)ccc1Cl group_label=inactive

---

read-out: Alkaline Phosphatase, Placental (ALPP) gene, ALPP (gene 250); assay: LTEA_HepaRG_ALPP: Life Technologies and Expression Analysis (LTEA) Assay for Alkaline Phosphatase, Placental (ALPP) gene using HepaRG (AID 2283468); settings: mRNA level, 48 h; actives raise or lower the signal
The source made the active and inactive calls. Rule for the calls: active = hit-call score of the fitted dose curve at least 0.9, where 1 is the maximum; inactive = score below 0.9.
Outcomes: label 1 = active, label 0 = inactive

compound="CCCC1COC(Cn2cncn2)(c2ccc(Cl)cc2Cl)O1 (stereo not drawn)" group_label="label 1"
compound="N#CC(CCc1ccc(Cl)cc1)(Cn1cncn1)c1ccccc1 (stereo not drawn)" group_label="label 1"
compound="CCOC(=O)C(Cl)Cc1cc(-n2nc(C)n(C(F)F)c2=O)c(F)cc1Cl (stereo not drawn)" group_label="label 0"
compound=CNC(=S)S group_label="label 0"
compound=COC(=O)c1ccccc1C(=O)OC group_label="label 0"
compound=CCNc1nc(Cl)nc(NCC)n1 group_label="label 0"
compound=COC(=O)N(OC)c1ccccc1COc1ccn(-c2ccc(Cl)cc2)n1 group_label="label 0"
compound=CCOP(=S)(OCC)SCn1c(=O)oc2cc(Cl)ccc21 group_label="label 0"
compound="CC(Oc1ccc(Cl)cc1Cl)C(=O)O (stereo not drawn)" group_label="label 0"
compound="CCCCC(CC)COC(=O)c1ccccc1C(=O)OCC(CC)CCCC (stereo not drawn)" group_label="label 0"
compound=CC(C)Oc1cc(-n2nc(C(C)(C)C)oc2=O)c(Cl)cc1Cl group_label="label 1"
compound=CCNc1nc(Cl)nc(NC(C)C)n1 group_label="label 0"
compound="OC(c1ccc(Cl)cc1)(c1cncnc1)c1ccccc1Cl (stereo not drawn)" group_label="label 1"
